Test system: RARa:RXR (NR concentration 270 nM, RXRa partner concentration 90 nM)
Test: PBM binding z-score (relative to random genomic background probes); higher = stronger binding; sequences stand for … in GC…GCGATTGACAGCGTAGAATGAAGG
Reported PBM binding z-score values are given for each entry in this list.
Keep it simple and answer with nothing but the number.

stdin: Endpoint output: PBM binding z-score of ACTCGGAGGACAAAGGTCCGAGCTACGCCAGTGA . Value?
stdout: -0.334

stdin: What do you get for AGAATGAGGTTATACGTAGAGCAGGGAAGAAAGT ?
stdout: 1.57

stdin: Try this sequence too: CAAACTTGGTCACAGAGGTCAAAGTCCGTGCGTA
stdout: 6.64

stdin: Repeat for the following sequence: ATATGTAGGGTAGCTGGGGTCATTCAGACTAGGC
stdout: 5.97

stdin: How about this sequence: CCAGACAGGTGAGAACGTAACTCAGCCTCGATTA
stdout: -0.0422

stdin: Further, for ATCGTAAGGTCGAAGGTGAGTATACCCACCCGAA ?
stdout: 3.33

stdin: Record: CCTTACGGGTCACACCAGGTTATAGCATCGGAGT
stdout: 5.06

stdin: And the next one, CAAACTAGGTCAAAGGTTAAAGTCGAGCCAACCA ?
stdout: 8.12

stdin: Note, next up: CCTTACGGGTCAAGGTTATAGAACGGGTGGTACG
stdout: 4.16

stdin: Next record, please: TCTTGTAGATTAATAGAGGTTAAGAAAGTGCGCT
stdout: 2.2

stdin: Query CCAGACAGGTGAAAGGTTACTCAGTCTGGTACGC next
stdout: 4.24

stdin: Then this sequence: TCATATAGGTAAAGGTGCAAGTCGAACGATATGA
stdout: 0.949

stdin: Same question, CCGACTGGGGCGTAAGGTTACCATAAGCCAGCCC this time
stdout: 0.883

stdin: What about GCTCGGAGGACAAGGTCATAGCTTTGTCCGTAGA ?
stdout: 3.71

stdin: Next: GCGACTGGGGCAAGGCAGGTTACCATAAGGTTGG
stdout: 0.854

stdin: Likewise for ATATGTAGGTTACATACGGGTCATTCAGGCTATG ?
stdout: 3.65

stdin: Next entry: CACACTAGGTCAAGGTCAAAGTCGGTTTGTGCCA
stdout: 5.87

stdin: Next entry: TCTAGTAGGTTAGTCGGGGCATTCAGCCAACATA
stdout: 0.939

stdin: Same question, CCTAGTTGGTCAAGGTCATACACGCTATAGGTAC this time
stdout: 4.33
